target: P. falciparum Rh5 (Rh5 – basigin interaction) (Plasmodium falciparum, UniProt Q8IFM5); assay: biochemical; assay type: binding
Sequence (Q8IFM5 24-526): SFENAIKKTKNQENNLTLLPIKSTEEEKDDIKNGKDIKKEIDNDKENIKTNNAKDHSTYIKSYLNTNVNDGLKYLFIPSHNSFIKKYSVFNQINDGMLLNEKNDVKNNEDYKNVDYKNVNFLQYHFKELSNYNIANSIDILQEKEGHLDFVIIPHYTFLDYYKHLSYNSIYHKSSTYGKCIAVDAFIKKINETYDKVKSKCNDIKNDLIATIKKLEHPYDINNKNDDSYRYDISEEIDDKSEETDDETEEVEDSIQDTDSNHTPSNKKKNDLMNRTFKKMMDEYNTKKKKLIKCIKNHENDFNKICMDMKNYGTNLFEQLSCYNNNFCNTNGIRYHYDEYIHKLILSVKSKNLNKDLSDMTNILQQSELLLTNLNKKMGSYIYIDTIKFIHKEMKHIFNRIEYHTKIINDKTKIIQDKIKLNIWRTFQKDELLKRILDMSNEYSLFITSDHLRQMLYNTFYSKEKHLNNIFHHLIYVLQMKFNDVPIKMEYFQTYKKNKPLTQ
metric name: pIC50
Here pIC50 is given on a logarithmic scale as minus log10 of the concentration in mol/L.

Problem: Under P. falciparum Rh5 (Rh5 – basigin interaction) (Plasmodium falciparum, UniProt Q8IFM5): report pIC50 of `O=C(Nc1cccc2c(=O)cc(C(=O)O)oc12)c1ccc(OCCCCc2ccccc2)cc1` .
Solution: 4.68

Problem: Under P. falciparum Rh5 (Rh5 – basigin interaction) (Plasmodium falciparum, UniProt Q8IFM5): report pIC50 of `O=C(Nc1cccc2c(=O)cc(C(=O)O)oc12)c1ccc(OCCCc2ccccc2)cc1` .
Solution: 4.62
